Target: HIV-1 protease (Human immunodeficiency virus type 1 group M subtype B, UniProt P04585)
Test: Zhang-Poorman kinetic assay of HIV-1 protease dimerization inhibition
Conditions: calculated from y-intercepts using the Zhang-Poorman equation; HIV-1 protease 0.6 to 5.1 nM
pKi: −log10 of the molar value.
Measurement kind: pKi

> print(dat)
                              line.notation  recorded.measurement
1  CC(C)C[C@H]1C(N2CC[C@H](N3C(=O)CC(=O)[C@@H]3C)C2)=CC(=O)N1[C@H]1CCN(C2=CC(=O)N[C@H]2Cc2ccccc2)C1                  6.03
2  CC(C)C[C@H]1C(N2CC[C@H](N3C(=O)C=C(OC(C)(C)C)[C@@H]3C)C2)=CC(=O)N1[C@H]1CCN(C2=CC(=O)N[C@H]2Cc2ccccc2)C1                  4.68
3  CC[C@H](C)[C@H]1C(OC(C)(C)C)=CC(=O)N1[C@H]1CCN(C2=CC(=O)N([C@H]3CCN(C4=CC(=O)N[C@H]4CC(C)C)C3)[C@H]2C)C1                  4.71
4  CC[C@H](C)[C@H]1C(=O)CC(=O)N1[C@H]1CCN(C2=CC(=O)N([C@H]3CCN(C4=CC(=O)N[C@H]4CC(C)C)C3)[C@H]2C)C1                  6.42
